Molecular target: T1, cynomolgus BLyS (full length, arginine 132 mutated to histidine) on CHO-K1 cells (cynomolgus, UniProt Q9Y275 1-285 (human entry))
T1 construct: also called cyno BLyS; CHO-K1 cynoBLyS
T1 chain: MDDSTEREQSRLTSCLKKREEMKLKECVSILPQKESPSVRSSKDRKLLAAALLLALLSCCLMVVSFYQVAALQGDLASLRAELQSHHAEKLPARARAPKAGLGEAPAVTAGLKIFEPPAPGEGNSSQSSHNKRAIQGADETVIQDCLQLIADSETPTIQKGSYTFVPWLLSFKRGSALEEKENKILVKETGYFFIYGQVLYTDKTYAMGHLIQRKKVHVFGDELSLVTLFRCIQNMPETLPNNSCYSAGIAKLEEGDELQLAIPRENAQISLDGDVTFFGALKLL
Experiment: flow cytometry (FACS) on CHO-K1 cynoBLyS cells, Alexa 488 secondary antibody
measurement-kind: EC50 (read off the curve)

Prompt: EC50 (read off the curve) for 97A3C2H4 (antibody, V domains shown, Mouse hybridoma antibody purified on Protein G) VH: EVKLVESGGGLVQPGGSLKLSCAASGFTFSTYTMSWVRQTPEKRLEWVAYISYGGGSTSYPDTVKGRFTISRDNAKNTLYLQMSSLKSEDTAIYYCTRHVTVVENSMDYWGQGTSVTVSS VL: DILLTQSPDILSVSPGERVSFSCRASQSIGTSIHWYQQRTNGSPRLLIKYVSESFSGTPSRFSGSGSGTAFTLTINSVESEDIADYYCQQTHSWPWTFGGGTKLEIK ?
Completion: ~0.3 nM

Prompt: For 2-1G11 (antibody, human IgG1, V domains shown) VH: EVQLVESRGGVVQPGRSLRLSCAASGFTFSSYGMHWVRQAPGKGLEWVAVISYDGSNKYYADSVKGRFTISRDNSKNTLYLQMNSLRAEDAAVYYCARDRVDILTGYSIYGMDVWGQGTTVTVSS VL: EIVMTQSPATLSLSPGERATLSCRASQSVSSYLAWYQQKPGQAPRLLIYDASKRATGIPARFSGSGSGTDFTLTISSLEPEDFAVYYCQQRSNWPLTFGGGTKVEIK then?
Completion: ~0.1 nM

Prompt: For 111D10D6G3 (antibody, V domains shown, Mouse hybridoma antibody purified on Protein G) VH: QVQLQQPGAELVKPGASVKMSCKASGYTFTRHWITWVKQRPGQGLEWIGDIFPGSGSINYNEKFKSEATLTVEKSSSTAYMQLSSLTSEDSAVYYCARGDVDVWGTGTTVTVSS VL: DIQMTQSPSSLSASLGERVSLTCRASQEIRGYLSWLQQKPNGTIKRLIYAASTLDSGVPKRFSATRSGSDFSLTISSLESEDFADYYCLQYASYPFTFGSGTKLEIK then?
Completion: ~0.1 nM
